tested on: Plasmodium falciparum; experiment: GSK_TCMDC: Inhibition of Plasmodium falciparum Dd2 in whole red blood cells, using parasite LDH activity as an index of growth. Test compounds present at 2uM; format: functional
Metric: Inhibition (%)
Write it as a number; the unit % goes unstated.

response.value for Cc1cc(-c2cccc3c(NC(=O)N4CCc5cc6nccc(N7CCN8CCC[C@H]8C7)c6cc54)cccc23)cc(C)n1.Cl (field: Inhibition) = 100

response.value for Cc1cccc2nc(-c3ccc(-c4ccc(CN5CCN(c6ccncc6)CC5)cc4)cc3)[nH]c12.O=C(O)C(F)(F)F (field: Inhibition) = 100

response.value for Cl.NOCCCOc1ccccc1 (field: Inhibition) = 0
